meta.source: paper PMC11249646

# MEASURED_TARGET: CIB1 and αIIb interaction (CIB1-GST : F-αIIb peptide) (Homo sapiens)
# Construct: made in house; host or cells: BL-21 plus RIL cells (E. coli)
# ASSAY_REMARKS: FP assay, 1536-well qHTS format (primary and confirmatory screen)
# Format: binding
# CONDITION_DETAILS: Table S3, confirmatory screen, qHTS curve class; a negative sign marks inhibitory curves
READOUT_LABEL: Curve Class (confirmatory screen)
Answers are plain numbers.

Solved cases below.
COMPOUND: CN1CCc2ccc3c4c2[C@]1(C)Cc1cccc(c1-4)OCO3 [NCGC00168048-01]
MEASURED_TARGET: CIB1 and αIIb interaction (CIB1-GST : F-αIIb peptide) (Homo sapiens)
Curve Class (confirmatory screen): -2.1

COMPOUND: CN(C(=O)c1cccs1)c1cccnc1.O=C(O)C(F)(F)F [NCGC00241518-01]
MEASURED_TARGET: CIB1 and αIIb interaction (CIB1-GST : F-αIIb peptide) (Homo sapiens)
Curve Class (confirmatory screen): -1.1

COMPOUND: O=C(Nc1nc(-c2ccccc2)cs1)c1ccccc1NS(=O)(=O)c1ccc(F)cc1.O=C(O)C(F)(F)F [NCGC00247844-02]
MEASURED_TARGET: CIB1 and αIIb interaction (CIB1-GST : F-αIIb peptide) (Homo sapiens)
Curve Class (confirmatory screen): 3

COMPOUND: CO[C@@H]1C(N(C)C(=O)c2ccccc2)C[C@H]2O[C@]1(C)n1c3ccccc3c3c4c(c5c6ccccc6n2c5c31)C(=O)NC4=O (stereo partly shown) [NCGC00345083-01]
MEASURED_TARGET: CIB1 and αIIb interaction (CIB1-GST : F-αIIb peptide) (Homo sapiens)
Curve Class (confirmatory screen): -1.2

COMPOUND: C[C@@H](NCc1cc2ccccc2[nH]1)c1cccc2ccccc12.Cl [NCGC00344505-01]
MEASURED_TARGET: CIB1 and αIIb interaction (CIB1-GST : F-αIIb peptide) (Homo sapiens)
Curve Class (confirmatory screen): 4

COMPOUND: Cc1ccccc1NC(=O)CN1C(=O)N/C(=C\c2cn(-c3cccc(C(=O)O)c3)cn2)C1=O [NCGC00182400-01]
MEASURED_TARGET: CIB1 and αIIb interaction (CIB1-GST : F-αIIb peptide) (Homo sapiens)
Curve Class (confirmatory screen): 4

Ask | Item O=C(O)C(F)(F)F.O=C(O)c1ccc(Cc2c(-c3cccc(-c4ccccc4)c3)nn(-c3nc(C(=O)O)cs3)c2O)cc1 [NCGC00356639-01] : provide Curve Class (confirmatory screen)
Reply | -2.2

----------
# MEASURED_TARGET: CIB1 and αIIb interaction (CIB1-GST : F-αIIb peptide) (Homo sapiens, UniProt Q99828)
# Construct: made in house; host or cells: BL-21 plus RIL cells (E. coli)
# Sequence (Q99828 whole entry): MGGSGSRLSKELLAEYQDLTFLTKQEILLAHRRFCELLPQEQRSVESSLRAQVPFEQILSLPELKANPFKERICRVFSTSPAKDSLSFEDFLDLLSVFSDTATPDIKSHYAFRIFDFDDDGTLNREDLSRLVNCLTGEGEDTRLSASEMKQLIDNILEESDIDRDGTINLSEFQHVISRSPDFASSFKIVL
# ASSAY_REMARKS: FP assay, 1536-well qHTS format (primary and confirmatory screen)
# Format: binding
# CONDITION_DETAILS: Table S3, confirmatory screen, qHTS curve class; a negative sign marks inhibitory curves
READOUT_LABEL: Curve Class (confirmatory screen)
One number for each entry.

Examples with answers:
MOLECULE: CC(=O)NC(Cc1ccccc1)C(=O)O (stereo not shown)
Curve Class (confirmatory screen): 4

MOLECULE: NC(=O)C1CCN(c2ncc(Br)s2)CC1
Curve Class (confirmatory screen): -2.1

MOLECULE: Cc1ccc(OCCn2c(CCNC(=O)c3ccsc3)nc3ccccc32)cc1.O=C(O)C(F)(F)F
Curve Class (confirmatory screen): 3

MOLECULE: C[C@@H]1CC[C@]2(C)C3(C)CC[C@@]2(OC3=O)[C@@]12C[C@H](c1ccoc1)OC2=O
Curve Class (confirmatory screen): -1.2

Okay, here is my list. What is Curve Class (confirmatory screen) for each of these?
1. N#Cc1ccc(NS(=O)(=O)c2ccc(NC(=O)Cc3ccc(F)c(Cl)c3)cc2)cc1.O=C(O)C(F)(F)F
2. Nc1nc2c(s1)C(c1ccccc1C(F)(F)F)CC(=O)N2.O=C(O)C(F)(F)F (stereo not shown)
3. O=C(O)C(F)(F)F.Oc1cccc2cc(C3CC3)cnc12
4. CCCCNC(=S)N/N=C1\C(=O)Nc2ccccc21.O=C(O)C(F)(F)F
5. CO[C@@]12[C@H](COC(N)=O)C3=C(C(=O)C(C)=C(N)C3=O)N1C[C@@H]1N[C@@H]12

Reply |
[3, 4, 4, -2.4, 4]

Respectfully, I request Curve Class (confirmatory screen) for each entry included below.
1. COC(=O)c1cc(Cl)ccc1NS(=O)(=O)C(F)(F)F
2. O=C1OC(c2ccc(O)c(S(=O)(=O)[O-])c2)(c2ccc(O)c(S(=O)(=O)[O-])c2)c2c(Br)c(Br)c(Br)c(Br)c21.[Na+].[Na+]
3. CN(C)CC1CCCN(C2CCN(C(=O)c3cccc(-c4cc(O)c5ncccc5c4)c3)CC2)C1.O=C(O)C(F)(F)F (stereo not shown)
4. CC(O)C(=O)O.CCOc1ccc2nc3cc(N)ccc3c(N)c2c1.O
5. N#Cc1ccc(NS(=O)(=O)c2ccc(NC(=O)Cc3ccc(Cl)c(Cl)c3)cc2)cc1.O=C(O)C(F)(F)F
6. CC(=O)Nc1sc2c(c1-c1nc3ccccc3o1)CCN(C(C)C)C2.O=C(O)C(F)(F)F

Reply |
1. 4
2. 4
3. 4
4. -2.1
5. 2.3
6. -1.2

For each entry beneath this line, provide reported Curve Class (confirmatory screen).
1. Cc1ccc([N+](=O)[O-])[c]2c1[O][Hg]2
2. CCCCCCCCn1cc(CC(N)=O)c2cc(-c3cccc(C)c3)ccc21.O=C(O)C(F)(F)F
3. COC(=O)c1ccc(O)c2ncc(-c3ccc(C(=O)NCCCN(C)C)cc3)cc12.O=C(O)C(F)(F)F
4. O=C(O)C(F)(F)F.O=C1Nc2ccccc2/C1=N/NC(=S)Nc1ccc(O)cc1
5. CN1CCc2cccc3c2[C@H]1Cc1ccc(O)c(O)c1-3
6. NS(=O)(=O)c1ccc(Cc2cn(-c3nc(C(=O)O)cs3)nc2-c2ccc(F)c(F)c2)cc1.O=C(O)C(F)(F)F
7. O=C(O)C(F)(F)F.O=C(c1ccc(-c2cc(O)c3ncccc3c2)cc1)N1CCNCC1

Reply |
[4, -2.4, 4, -1.4, 4, 4, 4]

Provide Curve Class (confirmatory screen) values for the following items, in order.
1. O=C(O)c1cc(/N=N/c2ccc(S(=O)(=O)Nc3ccccn3)cc2)ccc1O
2. Cc1ccc2c(c1)/C(=C\C(=O)c1cccs1)C(=O)N2.O=C(O)C(F)(F)F
3. C[n+]1cc2c3c(ccc2c2ccc4cc5c(cc4c21)OCO5)OCO3.[Cl-]
4. CC(C)(O)CCc1ccc(OCc2cc(-c3cccc(OC(F)F)c3)c3ncccc3c2)cc1
5. CC(C)c1ccc(NC(=S)N/N=C2\C(=O)Nc3ccccc32)cc1.O=C(O)C(F)(F)F
6. Cc1cc(NS(=O)(=O)c2ccc(NC(=O)Cc3cccc4ccccc34)cc2)no1.O=C(O)C(F)(F)F
7. O=C(O)C(F)(F)F.O=C1CCCC2=C1C(c1ccn[nH]1)N=C(Nc1nc3ccccc3o1)N2 (stereo not shown)

Reply |
1: -1.2; 2: -1.2; 3: 4; 4: 4; 5: 4; 6: -2.2; 7: 4

Please give Curve Class (confirmatory screen) for each item listed below.
1. Cn1cc(-c2[nH]c3cc(NC(=O)[C@H](N)C4CCCCC4)cc4c3c2C=NNC4=O)cn1
2. O=C(O)C(F)(F)F.O=C1CCCC2=C1C(c1ccncc1)N=C(Nc1nc3ccccc3o1)N2 (stereo not shown)

Reply |
1: -2.2; 2: 4

----------
# MEASURED_TARGET: CIB1 and αIIb interaction (CIB1-GST : F-αIIb peptide) (Homo sapiens, UniProt Q99828)
# Construct: made in house; host or cells: BL-21 plus RIL cells (E. coli)
# ASSAY_REMARKS: FP assay, 1536-well qHTS format (primary and confirmatory screen)
# Format: binding
# CONDITION_DETAILS: qHTS primary screen of LOPAC/NPACT libraries; negative = inhibition
# binning rule on Efficacy (%): low bin (below -30%), mid bin (-30% to below -20%), high bin (-20% or more)

MOLECULE: COc1c(C)c(OCC(O)C(C)(C)O)cc2c1CNC2=O (stereo not shown) [NCGC00385487-01]
CATEGORY: mid bin

Ask | Category of O=C(c1cc(O)c(O)c([N+](=O)[O-])c1)c1ccccc1F [NCGC00015881-04] :
Reply | low bin

Ask | Into which category would you place CN1CCN(CCCN2c3ccccc3Sc3ccc(C(F)(F)F)cc32)CC1.Cl.Cl [NCGC00261917-01] ?
Reply | low bin

----------
Could you please report measured Curve Class for the items listed next?
# MEASURED_TARGET: CIB1 and αIIb interaction (CIB1-GST : F-αIIb peptide) (Homo sapiens, UniProt Q99828)
# Construct: made in house; host or cells: BL-21 plus RIL cells (E. coli)
# ASSAY_REMARKS: FP assay, 1536-well qHTS format (primary and confirmatory screen)
# Format: binding
# CONDITION_DETAILS: qHTS primary screen hits, Table S2; negative sign = inhibitory curve
Answers are plain numbers.

Solved entries:
MOLECULE: O=C(Nc1nc(-c2ccccc2)cs1)c1ccncc1NS(=O)(=O)c1ccc2ccccc2c1.O=C(O)C(F)(F)F [NCGC00345031-01]
Curve Class: -2.2

MOLECULE: Cc1ccc(S(=O)(=O)Nc2cnccc2C(=O)Nc2nc(-c3cccc(Cl)c3)cs2)cc1.O=C(O)C(F)(F)F [NCGC00318956-01]
Curve Class: -1.4

MOLECULE: O=C(Cn1nc(-c2ccc(F)cc2)ccc1=O)NCCc1ccccc1.O=C(O)C(F)(F)F [NCGC00262332-01]
Curve Class: -2.4

Here is the next item to consider.
Ask | Could you please provide reported Curve Class for CC(C)(C)OC(=O)CC(=O)NNC(=O)c1nc2ccccc2[nH]1 [NCGC00181234-01] ? Thanks!
Reply | -2.4
